Assayed Target: adrenergic α1 receptor
Assay Explanation: adrenergic α1 receptor binding test ([3H] Prazosin Binding Test)
Set-up: species or system SD rats
Settings: 1 nM [3H] Prazosin, rat cortex, room temperature, 60 minutes
Value Type: pKi
# pKi is unitless: minus log10 of the molar concentration; print number only

>>> df
                                   compound  value_type  assay_result
0  CCN1CCN(c2cc(CCCOCOC)c(OC)c(-c3ccccc3)c2)CC1 [Example 69]         pKi          6.49

// switching to the query compound
Provide pKi, recorded with adrenergic α1 receptor, of CCN1CCN(c2cc(-c3ccccc3)c(Cl)c(S(=O)(=O)CC)c2)CC1 [Example 139]
7.16
